molecular target: human FAK (Homo sapiens, UniProt Q05397); construct: The complete cDNA of human FAK; made in house; host or cells: baculovirus expression system (vector pFastBac HTc); assay: FAK autophosphorylation inhibition, time resolved fluorescence (HTRF) assay; type: biochemical; conditions: 10 μM (values without asterisk); read-out: FAK % inhib at 10 μM
Sequence (Q05397 whole entry): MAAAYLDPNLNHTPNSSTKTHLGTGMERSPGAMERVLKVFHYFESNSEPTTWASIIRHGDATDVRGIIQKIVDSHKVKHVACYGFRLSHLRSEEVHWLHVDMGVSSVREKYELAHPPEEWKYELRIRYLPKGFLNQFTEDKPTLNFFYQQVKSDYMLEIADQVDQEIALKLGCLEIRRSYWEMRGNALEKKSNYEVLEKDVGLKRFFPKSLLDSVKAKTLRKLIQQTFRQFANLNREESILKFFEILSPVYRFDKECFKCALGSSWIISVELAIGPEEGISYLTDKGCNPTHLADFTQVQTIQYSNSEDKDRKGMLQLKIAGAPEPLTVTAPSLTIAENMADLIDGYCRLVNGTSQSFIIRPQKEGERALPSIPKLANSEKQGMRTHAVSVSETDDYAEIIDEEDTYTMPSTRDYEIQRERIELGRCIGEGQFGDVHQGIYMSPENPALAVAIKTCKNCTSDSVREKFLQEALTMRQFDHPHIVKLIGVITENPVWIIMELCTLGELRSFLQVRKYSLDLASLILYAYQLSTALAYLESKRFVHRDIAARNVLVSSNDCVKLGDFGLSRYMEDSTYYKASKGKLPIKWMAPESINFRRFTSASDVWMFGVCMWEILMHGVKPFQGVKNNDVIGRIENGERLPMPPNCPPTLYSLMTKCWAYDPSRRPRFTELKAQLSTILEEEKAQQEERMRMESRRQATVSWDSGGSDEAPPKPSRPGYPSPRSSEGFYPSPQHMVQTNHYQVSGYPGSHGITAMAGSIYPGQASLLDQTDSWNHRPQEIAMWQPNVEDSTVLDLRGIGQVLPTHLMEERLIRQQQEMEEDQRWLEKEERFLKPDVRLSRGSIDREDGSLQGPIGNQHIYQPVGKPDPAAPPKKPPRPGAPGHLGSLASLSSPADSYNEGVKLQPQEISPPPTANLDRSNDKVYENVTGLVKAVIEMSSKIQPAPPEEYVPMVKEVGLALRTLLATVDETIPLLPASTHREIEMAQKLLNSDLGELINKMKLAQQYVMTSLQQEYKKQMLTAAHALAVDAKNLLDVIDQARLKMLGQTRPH
measured_parameter: inhibition at 10 µM (%)

For orientation, consider the following solved cases.
1) CC(=O)Nc1n[nH]c2ccc(NS(=O)(=O)c3ccccc3S(C)(=O)=O)cc12 : 83
2) COc1cccc(-c2n[nH]c3ccc(NS(=O)(=O)c4ccccc4S(C)(=O)=O)cc23)c1 : 95
3) O=S(=O)(Nc1ccc2[nH]nc(-c3ccccc3)c2c1)c1cccc(Br)c1 : 38
4) CS(=O)(=O)c1ccccc1S(=O)(=O)Nc1ccc2[nH]nc(-c3ccc(Cl)s3)c2c1 : 83
5) O=S(=O)(Nc1ccc2[nH]nc(-c3cc4ccccc4[nH]3)c2c1)c1ccccc1OC(F)(F)F : 90

P: O=[N+]([O-])c1ccccc1CS(=O)(=O)Nc1ccc2[nH]nc(-c3ccccc3)c2c1
Q: CS(=O)(=O)c1ccccc1S(=O)(=O)Nc1ccc2[nH]nc(-c3cccs3)c2c1
R: CNc1n[nH]c2ccc(NS(=O)(=O)c3ccccc3S(C)(=O)=O)cc12
Which order do these items take when sorted by rising inhibition at 10 µM? List them. Hello, could you send the labels back in the order asked? Thank you.
P, R, Q

----------
target: human IGF1R cytoplasmic domain (Homo sapiens); construct: The human IGF1R cytoplasmic domain was cloned; made in house; host or cells: SF21 insect cells (baculovirus); test: IGF1R autophosphorylation inhibition, time resolved fluorescence (HTRF) assay; assay type: biochemical; conditions: 10 μM; read-out: IGF1R % inhib at 10 μM
Sequence (P08069 960-1367 limits assumed): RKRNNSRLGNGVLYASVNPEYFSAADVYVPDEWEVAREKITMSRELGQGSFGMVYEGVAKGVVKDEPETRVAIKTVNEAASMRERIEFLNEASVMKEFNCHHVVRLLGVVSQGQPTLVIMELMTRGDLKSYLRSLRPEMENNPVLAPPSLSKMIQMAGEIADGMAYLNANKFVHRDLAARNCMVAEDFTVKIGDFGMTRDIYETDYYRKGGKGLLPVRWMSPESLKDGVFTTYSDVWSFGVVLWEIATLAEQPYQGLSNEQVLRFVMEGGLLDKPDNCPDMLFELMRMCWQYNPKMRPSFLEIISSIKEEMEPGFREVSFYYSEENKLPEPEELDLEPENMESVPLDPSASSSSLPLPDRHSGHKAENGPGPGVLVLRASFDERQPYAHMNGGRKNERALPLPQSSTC
measured_parameter: inhibition at 10 µM (%)

For orientation, consider the following solved cases.
1. COc1ccc(OC)c(S(=O)(=O)Nc2ccc3[nH]nc(-c4ccccc4)c3c2)c1 [Example 131] : 51
2. CS(=O)(=O)c1ccccc1S(=O)(=O)Nc1ccc2[nH]nc(-c3ccccc3N)c2c1 [Example 49] : 50
3. O=S(=O)(Nc1ccc2[nH]nc(-c3ccccc3)c2c1)c1cc(F)cc(F)c1 [Example 158] : 68
4. CS(=O)(=O)c1ccccc1S(=O)(=O)Nc1ccc2[nH]nc(-c3ccc[nH]3)c2c1 [Example 60] : 99
5. O=S(=O)(Nc1ccc2[nH]nc(-c3ccccc3)c2c1)c1cccs1 [Example 110] : 80

1: CS(=O)(=O)c1ccccc1S(=O)(=O)Nc1ccc2[nH]nc(-c3cccc([N+](=O)[O-])c3)c2c1 [Example 162]
2: CS(=O)(=O)c1ccccc1S(=O)(=O)Nc1ccc2[nH]nc(-c3cc4cccnc4[nH]3)c2c1 [Example 57]
Larger number for inhibition at 10 µM: 1 , or 2 ? Choose, then provide that item's label.
1

----------
Target: human KDR enzyme (Homo sapiens)
Construct: The cytoplasmic domain of the human KDR enzyme; GST; made in house; host or cells: SF21 insect cells (baculovirus)
Sequence (P35968 786-1356 limits assumed): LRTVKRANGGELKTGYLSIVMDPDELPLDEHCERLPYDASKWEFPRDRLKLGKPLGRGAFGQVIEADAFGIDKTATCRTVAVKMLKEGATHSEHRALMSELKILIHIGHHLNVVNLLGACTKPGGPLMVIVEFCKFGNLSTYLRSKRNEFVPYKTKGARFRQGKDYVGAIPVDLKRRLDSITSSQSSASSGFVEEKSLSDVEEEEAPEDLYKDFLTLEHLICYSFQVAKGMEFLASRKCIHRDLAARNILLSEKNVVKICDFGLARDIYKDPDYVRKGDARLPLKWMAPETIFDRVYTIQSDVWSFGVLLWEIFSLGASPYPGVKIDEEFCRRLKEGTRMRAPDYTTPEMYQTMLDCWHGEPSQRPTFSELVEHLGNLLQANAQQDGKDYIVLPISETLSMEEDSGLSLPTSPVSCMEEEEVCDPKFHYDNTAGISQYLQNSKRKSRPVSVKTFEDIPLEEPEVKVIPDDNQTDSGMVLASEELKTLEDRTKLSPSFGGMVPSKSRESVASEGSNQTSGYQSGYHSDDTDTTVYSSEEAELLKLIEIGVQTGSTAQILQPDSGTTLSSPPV
Experiment: KDR substrate (PLCγ) phosphorylation, scintillation assay
Assay type: biochemical
Conditions: 10 μM; read-out: KDR % inhib at 10 μM
Description: The inhibitory effect of the compounds is determined in an assay of substrate phosphorylation by the KDR enzyme in vitro using a scintillation technique (96-well plate, NEN). […] The KDR kinase activity is measured in 20 mM MOPS, 10 mM MgCl2, 10 mM MnCl2, 1 mM DTT, 2.5 mM EGTA, 10 mM β-glycerophosphate, pH=7.2, in the presence of 10 mM MgCl2, 100 μM Na3VO4, 1 mM NaF. […] The radioactivity is measured in each well using Top Count NXT radioactivity counter (Packard). […]
measured_parameter: inhibition at 10 µM (%)

For orientation, consider the following solved cases.
1. N#Cc1ccccc1S(=O)(=O)Nc1ccc2[nH]nc(-c3ccccc3)c2c1 : 72
2. O=S(=O)(Nc1ccc2[nH]ncc2c1)c1cccc(F)c1 : 13
3. Cc1n[nH]c2ccc(NS(=O)(=O)c3ccc(Cl)c(Cl)c3)cc12 : 11
4. CS(=O)(=O)c1ccccc1S(=O)(=O)Nc1ccc2[nH]nc(-c3ccco3)c2c1 : 42
5. O=S(=O)(Nc1ccc2[nH]nc(-c3ccccc3)c2c1)c1cccc(F)c1 : 85
6. CCOc1ccc(-c2n[nH]c3ccc(NS(=O)(=O)c4ccccc4S(C)(=O)=O)cc23)cc1 : 50

1: O=S(=O)(Nc1ccc2[nH]nc(-c3ccccc3)c2c1)c1cccnc1
2: Cc1ccc(-c2n[nH]c3ccc(NS(=O)(=O)c4ccccc4S(C)(=O)=O)cc23)cc1C
Larger number for inhibition at 10 µM: 1 , or 2 ? Choose, then provide that item's label.
1
